Test system: 786-0 renal
Assay: NCI-60 one-dose screen, 48 h (100 = growth as untreated, 0 = no growth, -100 = all killed)
Conditions: 10 µM unless noted
The panel holds about 83,000 compounds, 20% with a hit somewhere; the sample as a whole holds those more often.
Define the label as label 1 when growth is strictly less than 40% and as label 0 in all remaining cases.

COC(=O)/C=C1\SC(=Nc2cccc(OC)c2)N(CCc2c[nH]c3ccccc23)C1=O = label 0

Q: is_below(growth, 40%) for "N#Cc1c(-c2ccc(F)cc2)nc(N=Nc2c(O)[nH]c3ccc(Cl)cc23)nc1N1CCOCC1" ?
Result: label 1

Q: is_below(growth, 40%) for "C=C(C)[C@@H]1CC[C@]2(C(=O)O)CC[C@]3(C)[C@H](CC[C@@H]4[C@@]5(C)C[C@@H](CC#Cc6ccccc6)C(=O)C(C)(C)[C@@H]5CC[C@]43C)[C@@H]12" ?
Result: label 1

Q: is_below(growth, 40%) for "CCOC(=O)C(=Cc1c(-c2ccccc2)[nH]c2ccccc12)C(=O)OCC" ?
Result: label 0
